System: SNB-75 CNS
Test: NCI-60 one-dose screen, 48 h (100 = growth as untreated, 0 = no growth, -100 = all killed)
Conditions: 10 µM
Compounds without any hit were thinned out: in the full panel of roughly 83,000, 20% have a hit. The source made the active and inactive calls. How the source made its calls: active means growth percent below 10; inactive means the rest.
Measured growth by item
assay_endpoint: growth

INSERT INTO measurements (query_smiles, measured_value) VALUES
  ('COc1cccc(Cn2c(-c3nonc3N)nc3ccccc32)c1', '-16.7% (active)'),
  ('Cc1cccc2c1O/C(=C\c1ccc([N+](=O)[O-])o1)C2=O', '65% (inactive)'),
  ('COc1ccc2c(c1)C(=O)c1c-2c(OCCN(C)C)nc2ccccc12', '47.2% (inactive)'),
  ('COc1ccc(-c2cc(/C=C3\C(=O)Nc4ccc(Cl)cc43)[nH]n2)cc1OC', '64.2% (inactive)'),
  ('CCCCCCCNc1nc(C=O)ncc1-c1ccc(C(F)(F)F)cc1', '97% (inactive)');

====

Tested on: U251 CNS
Assay: NCI-60 one-dose screen, 48 h (100 = growth as untreated, 0 = no growth, -100 = all killed)
Conditions: 10 µM
Procedure: Growth inhibition of the U251 human tumor cell line is measured as a screen for anti-cancer activity. Cells are grown in 96 well plates and exposed to the test compound for 48 hours. Compounds are tested at a single concentration, which is 10^-5 M for most compounds. The reported endpoint is percent growth (GI% or GIPRCNT), where numbers from 0 - 100% represent growth inhibition, and numbers from -100% - 0 represent cell death. For example, a value of 40 represents 60% growth inhibition. […]
This is part of a sample that, as a whole, favours compounds with a hit. Of some 83,000 tested, about 20% had one in any assay. Calls of active or inactive are those of the source. Rule for the calls: active = growth percent below 10; inactive = the rest.
assay_endpoint: growth

INSERT INTO measurements (molecule, measured_value) VALUES
  ('CN(C)C(=S)N/N=C\C=N/NC(=S)N(C)C', '42.8% (inactive)'),
  ('COc1cc(-c2cc(/C=C3\C(=O)Nc4ccccc43)[nH]n2)cc(OC)c1OC', '56.1% (inactive)'),
  ('CC(C)=CCc1cc(O)cc2c1OC(C=C(C)C)C1=C2C(=O)C2=C(C1=O)S(=O)(=O)CCN2 (stereo not drawn)', '-14.3% (active)'),
  ('N#Cc1cc(-c2cc3ccccc3o2)oc1N', '3.63% (active)'),
  ('CCN(CC)CCOc1nc2ccc(OC)cc2c2c1-c1ccc(OC)cc1C2=O', '-87.9% (active)'),
  ('CC(C)(C)c1ccc(N2CSC(=S)N(c3ccc(C(C)(C)C)cc3)C2)cc1', '100% (inactive)'),
  ('CN(Cc1ccccc1)Cc1ccc([N+](=O)[O-])cc1I', '89.4% (inactive)'),
  ('CSCCCNC(=O)c1ccc2c(c1)/C(=C/c1[nH]c(C)cc1C)C(=O)N2', '43.6% (inactive)'),
  ('O=C(Nc1cccc(Br)c1)c1cc(=O)[nH]c2ccccc12', '91.5% (inactive)'),
  ('COc1cc(Nc2ccnc(NCCCNc3ccnc4cc(Cl)ccc34)n2)cc(OC)c1', '-64.4% (active)'),
  ('COc1cc(NC(=O)CCSc2nc3ccc(Cl)cc3c(=O)n2Cc2ccccc2)cc(OC)c1OC', '70.2% (inactive)'),
  ('CCOC(=O)c1ccc(NC(=O)Nc2ncc(Cl)cc2Cl)cc1', '99.2% (inactive)'),
  ('CCOC(=O)CNC(=O)CCCCSc1ncnc2nc[nH]c12', '106% (inactive)');
